Reported DC50 is given for each of the following compounds.
- system_name: CK1α (Homo sapiens)
- Construct: HEK293 clonal lines with CRISPR KI HiBiT tag on CSNK1A1
- Sequence (P48729 whole entry): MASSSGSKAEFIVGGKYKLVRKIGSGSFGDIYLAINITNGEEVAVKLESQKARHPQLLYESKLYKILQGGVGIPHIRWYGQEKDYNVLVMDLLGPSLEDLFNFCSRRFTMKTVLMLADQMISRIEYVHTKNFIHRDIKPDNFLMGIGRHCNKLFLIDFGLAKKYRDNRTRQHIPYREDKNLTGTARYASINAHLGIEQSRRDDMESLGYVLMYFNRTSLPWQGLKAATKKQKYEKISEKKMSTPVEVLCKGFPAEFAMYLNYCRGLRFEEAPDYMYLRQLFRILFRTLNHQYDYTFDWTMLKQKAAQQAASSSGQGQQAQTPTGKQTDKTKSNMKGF
- Sequence (Q96SW2 whole entry, further chain): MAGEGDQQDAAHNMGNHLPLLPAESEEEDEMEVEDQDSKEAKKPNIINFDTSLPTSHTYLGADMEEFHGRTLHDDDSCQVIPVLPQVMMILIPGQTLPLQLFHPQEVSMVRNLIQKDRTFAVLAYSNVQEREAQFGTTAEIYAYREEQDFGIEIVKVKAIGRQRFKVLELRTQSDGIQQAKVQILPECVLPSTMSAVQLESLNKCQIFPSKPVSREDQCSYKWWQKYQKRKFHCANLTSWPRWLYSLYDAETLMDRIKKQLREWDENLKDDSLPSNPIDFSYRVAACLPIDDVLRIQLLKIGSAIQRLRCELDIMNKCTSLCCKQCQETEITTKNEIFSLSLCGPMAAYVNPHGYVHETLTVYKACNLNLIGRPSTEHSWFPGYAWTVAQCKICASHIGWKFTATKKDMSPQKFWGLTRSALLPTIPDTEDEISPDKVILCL
- Sequence (Q16531 2-1140 partner limits assumed): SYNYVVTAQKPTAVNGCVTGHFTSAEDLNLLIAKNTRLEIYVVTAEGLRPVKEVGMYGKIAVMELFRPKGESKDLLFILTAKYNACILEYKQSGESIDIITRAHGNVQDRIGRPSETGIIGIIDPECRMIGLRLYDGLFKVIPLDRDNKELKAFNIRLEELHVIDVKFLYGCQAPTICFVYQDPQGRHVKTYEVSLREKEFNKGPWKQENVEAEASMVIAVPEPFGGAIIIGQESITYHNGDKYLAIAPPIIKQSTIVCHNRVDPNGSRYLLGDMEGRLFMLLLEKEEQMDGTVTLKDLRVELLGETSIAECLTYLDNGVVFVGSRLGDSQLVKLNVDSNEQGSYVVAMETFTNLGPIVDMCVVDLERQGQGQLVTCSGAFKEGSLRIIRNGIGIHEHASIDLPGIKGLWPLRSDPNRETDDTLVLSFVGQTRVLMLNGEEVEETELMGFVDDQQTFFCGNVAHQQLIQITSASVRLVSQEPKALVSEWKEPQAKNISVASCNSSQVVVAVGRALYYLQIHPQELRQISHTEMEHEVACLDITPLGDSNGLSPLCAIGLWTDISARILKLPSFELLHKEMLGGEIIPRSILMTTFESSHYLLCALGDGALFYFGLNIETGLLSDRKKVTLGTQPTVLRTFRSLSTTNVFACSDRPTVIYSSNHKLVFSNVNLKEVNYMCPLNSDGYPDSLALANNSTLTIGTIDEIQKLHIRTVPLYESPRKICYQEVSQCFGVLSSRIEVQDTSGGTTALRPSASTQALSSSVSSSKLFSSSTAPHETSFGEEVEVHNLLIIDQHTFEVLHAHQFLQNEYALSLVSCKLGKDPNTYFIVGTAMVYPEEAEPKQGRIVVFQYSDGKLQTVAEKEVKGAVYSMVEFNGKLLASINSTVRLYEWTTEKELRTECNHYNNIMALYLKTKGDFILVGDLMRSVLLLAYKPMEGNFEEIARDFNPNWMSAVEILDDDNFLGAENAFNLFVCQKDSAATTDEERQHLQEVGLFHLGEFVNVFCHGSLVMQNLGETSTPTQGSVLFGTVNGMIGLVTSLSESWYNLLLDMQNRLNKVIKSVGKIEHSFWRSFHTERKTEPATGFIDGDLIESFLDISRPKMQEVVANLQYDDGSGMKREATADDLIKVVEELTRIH
- assay_summary: CK1α NanoBit Assay (HiBiT-tagged CSNK1A1, HEK293 clonal lines)
- Assay type: cell-based
- condition_description: HEK293 HiBiT-CSNK1A1/LgBiT cells, 24 h incubation
value_type: DC50

• N#Cc1cccc2c1CCCN2C(=O)Nc1ccc2c(c1)CN(C1CCC(=O)NC1=O)C2=O (stereo not shown) [Compound 126] = > 1 µM
• O=C1CCC(N2Cc3cc(NC(=O)N4c5ccccc5CC45COC5)ccc3C2=O)C(=O)N1 (stereo not shown) [Compound 322] = < 0.1 µM
• O=C1CCC(N2Cc3cc(NC(=O)N4CCc5cc(C6CC6)ccc54)ccc3C2=O)C(=O)N1 (stereo not shown) [Compound 348] = < 0.1 µM
• O=C1CCC(N2Cc3cc(NC(=O)N4CCCc5ccc(F)cc54)ccc3C2=O)C(=O)N1 (stereo not shown) [Compound 116] = < 0.1 µM
